The reader will find reported inhibition values listed item by item below.
Test system: intestinal alkaline phosphatase [Mus musculus]
Assay: mouse intestinal phosphatase enzyme inhibition – biochemical, luminescence, uHTS, primary screen (AID 2806);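 further: plate controls were DMSO with enzyme for no effect and no enzyme wells for full effect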
Conditions: purified mouse IAP, CDP-Star luminescence, 30 min; at 10 µM; active compounds read high
The whole screen tested about 330,000 compounds, of which about 660 (0.2%) were called active. This is one part of a sample in which actives are shown more often than they occur.
Numbers only here, please. The scale is %.

# inhibition (compound: `COc1ccc(OC)c(-c2csc(NC(=O)COC(=O)C3CC3)n2)c1` ) is 6.9

# inhibition (compound: `O=C(/C=C/Nc1ccc(S(=O)(=O)Nc2cnc3ccccc3n2)cc1)c1cccnc1` ) is 10

----------
System: intestinal alkaline phosphatase [Mus musculus]
Test: mouse intestinal phosphatase enzyme inhibition – biochemical, luminescence, uHTS, primary screen (AID 2806);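 further: plate controls were DMSO with enzyme for no effect and no enzyme wells for full effect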
Conditions: purified mouse IAP, CDP-Star luminescence, 30 min; at 10 µM
Hit rate of the full screen: of about 330,000 compounds, about 660 (0.2%) were called active.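 Rule for the calls: active = inhibition of at least 40% at 10 µM in the primary screen; inactive = the rest.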 What follows is part of a selection rich in actives, with near analogues and random picks from the rest.
Respond with a class label; see active, inactive

As a guide, the following entries are already answered.
>  <compound>
Cc1ccc2c(c1)NC(=O)[C@@]1(C)[C@@H](c3ccccc3)[C@H]3COc4ccc(Cl)cc4[C@@H]3N1C2=O

>  <subject of test>
intestinal alkaline phosphatase [Mus musculus]

>  <assigned label>
inactive

$$$$
>  <compound>
Clc1cccc(Cl)c1OCCOCCNCc1ccccc1

>  <subject of test>
intestinal alkaline phosphatase [Mus musculus]

>  <assigned label>
inactive

$$$$
>  <compound>
CCC(=O)c1ccc(OCC(=O)OCC(=O)N2CCc3ccccc3C2)cc1

>  <subject of test>
intestinal alkaline phosphatase [Mus musculus]

>  <assigned label>
inactive

$$$$
>  <compound>
CC(NC(=O)c1ccccc1C(=O)O)c1ccc(-n2ccnc2)cc1 (stereo not given)

>  <subject of test>
intestinal alkaline phosphatase [Mus musculus]

>  <assigned label>
inactive

$$$$

Problem: Dear all, I need the recorded test outcome for `CCCCNc1ccc(C(=O)Nc2cccc(C)n2)cc1[N+](=O)[O-]` , thank you.
Solution: inactive

----------
Test system: intestinal alkaline phosphatase [Mus musculus]
Experiment: mouse intestinal phosphatase enzyme inhibition – biochemical, luminescence, uHTS, primary screen (AID 2806);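 further: plate controls were DMSO with enzyme for no effect and no enzyme wells for full effect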
Settings: purified mouse IAP, CDP-Star luminescence, 30 min; at 10 µM; active compounds read high
In all, about 330,000 compounds went through this assay and about 660 (0.2%) were called active. For the sample, actives were picked, then their nearest neighbours and some compounds at random.
The reader will find reported inhibition values listed item by item below.

>  <molecule>
CCOC(=O)C(NS(=O)(=O)c1ccc(C)cc1)(C(F)(F)F)P(=O)(OCC(C)C)OCC(C)C (stereo not given)

>  <recorded measurement>
2.8% (inactive)

$$$$
>  <molecule>
O=[N+]([O-])c1ccc(N2CCNCC2)cc1NCc1cccnc1

>  <recorded measurement>
3% (inactive)

$$$$
>  <molecule>
CCC(=O)Nc1c(S(=O)(=O)c2ccccc2)c2nc3ccccc3nc2n1Cc1ccccc1

>  <recorded measurement>
2.7% (inactive)

$$$$
>  <molecule>
COc1ccccc1CNC(=O)CSc1nc(=O)n(Cc2ccncc2)c2c1CCC2

>  <recorded measurement>
-1.4% (inactive)

$$$$

# inhibition (molecule: `CN(C)N(C)C(=O)C(O)(c1ccccc1)c1ccccc1` ) is 2.1% (inactive)

Values compiled from PubChem BioAssay AID2806.
